Reference source for all entries: PubChem BioAssay (NCI)

Tested on: SK-MEL-28 melanoma
Experiment: NCI-60 one-dose screen, 48 h
Conditions: 10 µM unless noted
Compounds without any hit were thinned out: in the full panel of roughly 83,000, 20% have a hit. Calls of active or inactive are those of the source. The calls were made as follows: active = growth percent below 10; inactive = the rest.
Outcomes: yes = active, no = inactive

{"columns": ["smi", "answerLabel"],
 "data": [
  ["O=C1c2[nH]cc(CN[C@@H]3CCCN3)c2C(=O)c2c1c(O)c1ccccc1c2O", "yes"],
  ["Brc1ccccc1Nc1ccc2nnc(-c3ccncc3)n2n1", "no"],
  ["O=C1c2c(c3c4cc(Br)ccc4[nH]c3c3ccc4ccccc4c23)C(=O)N1O", "no"],
  ["Cc1nn(-c2ccccc2)c2nc3nc4c(c(N)c3c(-c3ccc(Cl)cc3)c12)CCC4", "no"],
  ["O=C(N/N=C(\\CS(=O)(=O)c1ccccc1)c1cc2cc(Br)ccc2oc1=O)c1ccccc1", "no"]
]}
